This collection of values is drawn from patent US12559750B2.

Catalogue of % Inhibition @ 0.1 uM values
- Tested on: AMPA-R
- Test: [3H]AMPA radioligand binding assay on rat brain synaptic membranes
- Experimental setup: Experiment #2, 0.1 uM
Note: unit % is implicit; provide only the numeric part.

Solved cases below.
INSERT INTO results (record_sequence, assayed_system, measured_attribute, reading_unit, val) VALUES
  ('ASGSCMAFCFUFUMUSAS [RG-NG-1015]', 'AMPA-R', '% Inhibition @ 0.1 uM', '%', 2.3),
  ('AEGECMAFCFUFUMTEGE [RG-NG-1009]', 'AMPA-R', '% Inhibition @ 0.1 uM', '%', '−11.8'),
  ('ASCSAMAFUFGFCMASCS [RG5124, reference compound]', 'AMPA-R', '% Inhibition @ 0.1 uM', '%', '−1.2'),
  ('ASGSCSALCFUFUMUSCS [RG-NG-1028]', 'AMPA-R', '% Inhibition @ 0.1 uM', '%', 15.7),
  ('AMGLCLALCLUMTLUCM [RG-NG-1029]', 'AMPA-R', '% Inhibition @ 0.1 uM', '%', 0.9);

The value of % Inhibition @ 0.1 uM measured for the sequence ASGSCMAFCFUFUMUSGS [RGLS4326, reference compound] turned out to be 31.5

The value of % Inhibition @ 0.1 uM measured for the sequence AMAMGLCLALCLUMTLUCM [RG-NG-1030] turned out to be 2.9

The value of % Inhibition @ 0.1 uM measured for the sequence ALGLCMAFCFUFUMUSGS [RG-NG-1011] turned out to be −2.2

----------
- System: AMPA-R
- Test: [3H]AMPA radioligand binding assay on rat brain synaptic membranes;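 note: competition binding in which test compounds at rising concentrations displace [3H]AMPA from AMPA-R on rat brain synaptic membranes, with reduced bound radioligand as read-out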
- Experimental setup: Experiment #2, 100 uM
Hi, to clarify the labels: Fulfilled covers % Inhibition @ 100 uM from 90% upward, Not fulfilled covers anything below 90%.

INSERT INTO measurements (record_sequence, label_value) VALUES
  ('ASGSCMAFCFUFUMUSUS [RG-NG-1017]', 'Not fulfilled');

Q: Quick check: does ASGSCMAFCFUFUMUSGS [RGLS4326, reference compound] have % Inhibition @ 100 uM greater than or equal to 90%?
Ans: Fulfilled

Q: Quick check: does ALGLCMAFCFUFUMUSGS [RG-NG-1011] have % Inhibition @ 100 uM greater than or equal to 90%?
Ans: Fulfilled

----------
- System: miR-17
- Test: microRNA polysome shift assay (miPSA) in kidney of wild type mice
- Assay type: in vivo, mouse
- Parameters: scale not given here
- Experimental setup: single dose 3 mg/kg, seven days later
- Method: In vivo potency was evaluated using the microRNA polysome shift assay (miPSA). This assay was used to determine the extent to which compounds directly engage the miR-17 target in the kidney in normal and PKD mice. […] Wild type mice were administered a single dose of 0.3 mg/kg, 3 mg/kg, or 30 mg/kg. […] The tested oligonucleotides displaced miR-17 from translationally active polysome (as measured by miPSA) in normal mouse kidneys.
Measured attribute: miPSA Displacement Score, Mean
Write the number on its own, no unit after it.

Solved cases below.
INSERT INTO measurements (record_sequence, val) VALUES
  ('ASGSCMAFCFUFUMUSAS [RG-NG-1015]', 2.562),
  ('ASGSCMAFCFUFUMUSGS [RGLS4326, reference compound]', 2.247),
  ('ASGSCMAFCFUFUMUSUS [RG-NG-1017]', 2.292);

Now look at this one.
Readout miPSA Displacement Score, Mean for ASGSCMAFCFUFUMUSCS [RG-NG-1016] , test system miR-17, was 2.263
